Each record here notes measured viability, T/C.
# Test system: IGROV1 complex spheroids (HUVEC, MSC), viability % test/control
# experiment.summary: Anticancer human tumor IGROV1 cell line growth inhibition [GQUAD];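 also: spheroids exposed to compounds for 7 days before readout; 100% = DMSO vehicle control viability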
# cond: second compound 0.1 µM; first compound 0.316 µM; hits give low values

molecule | viability, T/C
Cc1[nH]c2ccccc2c1CCNCc1ccc(/C=C/C(=O)NO)cc1 + Cc1[nH]c2ccc(F)cc2c1-c1nc2c3cccnc3c3ncccc3c2[nH]1 | 0.36%
Cn1ncnc1[C@H]1c2n[nH]c(=O)c3cc(F)cc(c23)N[C@@H]1c1ccc(F)cc1 + CN(C)c1ccc(Nc2c3ccc(NC(=O)CCN4CCCC4)cc3nc3cc(NC(=O)CCN4CCCC4)ccc23)cc1 | 35.9%
CCc1c2c(nc3ccc(O)cc13)-c1cc3c(c(=O)n1C2)COC(=O)[C@]3(O)CC + CN(C)c1ccc(Nc2c3ccc(NC(=O)CCN4CCCC4)cc3nc3cc(NC(=O)CCN4CCCC4)ccc23)cc1 | 1.47%

* * *

# System: IGROV1 complex spheroids (HUVEC, MSC), viability % test/control
# experiment.summary: Anticancer human tumor IGROV1 cell line growth inhibition [GQUAD]; active = viability on the fitted dose curve at most 10% of control; inactive = the rest;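 also: spheroids exposed to compounds for 7 days before readout; 100% = DMSO vehicle control viability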
# cond: second compound 0.0316 µM; first compound 0.316 µM
Classes used: 1 (yes) for active, 0 (no) for inactive

molecule | assigned.class
CC1COCCN1c1cc(C2(S(C)(=N)=O)CC2)nc(-c2ccnc3[nH]ccc23)n1 (stereo not given) + CN(C)c1ccc(Nc2c3ccc(NC(=O)CCN4CCCC4)cc3nc3cc(NC(=O)CCN4CCCC4)ccc23)cc1 | 0 (no)
C#Cc1c(F)ccc2cc(O)cc(-c3ncc4c(N5CC6CCC(C5)N6)nc(OCC56CCCN5CC(F)C6)nc4c3F)c12 (stereo not given) + Cc1[nH]c2ccc(F)cc2c1-c1nc2c3cccnc3c3ncccc3c2[nH]1 | 0 (no)
CC(=O)O[C@H]1C(=O)[C@@]2(C)[C@H]([C@H](OC(=O)c3ccccc3)[C@]3(O)C[C@H](OC(=O)[C@H](O)[C@@H](NC(=O)c4ccccc4)c4ccccc4)C(C)=C1C3(C)C)[C@]1(OC(C)=O)CO[C@@H]1C[C@@H]2O + Cc1cnc(CNC(=O)c2c(=O)c3ccc(N4CCCN(C)CC4)nc3n3c2sc2ccccc23)cn1 | 1 (yes)
CC(C)n1c(=O)n(C)c2cnc3cc(F)c(-c4ccc(OCCCN5CCCCC5)nc4)cc3c21 + Cc1cnc(CNC(=O)c2c(=O)c3ccc(N4CCCN(C)CC4)nc3n3c2sc2ccccc23)cn1 | 0 (no)
CCCS(=O)(=O)Nc1ccc(F)c(C(=O)c2c[nH]c3ncc(-c4ccc(Cl)cc4)cc23)c1F + CN(C)c1ccc(Nc2c3ccc(NC(=O)CCN4CCCC4)cc3nc3cc(NC(=O)CCN4CCCC4)ccc23)cc1 | 0 (no)
Cc1[nH]c2ccccc2c1CCNCc1ccc(/C=C/C(=O)NO)cc1 + Cc1cnc(CNC(=O)c2c(=O)c3ccc(N4CCCN(C)CC4)nc3n3c2sc2ccccc23)cn1 | 1 (yes)
C=CC(=O)N1CCN(c2nc(=O)n(-c3c(C)ccnc3C(C)C)c3nc(-c4c(O)cccc4F)c(F)cc23)C(C)C1 (stereo not given) + Cc1cnc(CNC(=O)c2c(=O)c3ccc(N4CCCN(C)CC4)nc3n3c2sc2ccccc23)cn1 | 0 (no)
C#Cc1c(F)ccc2cc(O)cc(-c3ncc4c(N5CC6CCC(C5)N6)nc(OCC56CCCN5CC(F)C6)nc4c3F)c12 (stereo not given) + Cc1cnc(CNC(=O)c2c(=O)c3ccc(N4CCCN(C)CC4)nc3n3c2sc2ccccc23)cn1 | 0 (no)
COc1cccc2c1C(=O)c1c(O)c3c(c(O)c1C2=O)CC(O)(C(=O)CO)CC3OC1CC(N)C(O)C(C)O1 (stereo not given) + Cc1cnc(CNC(=O)c2c(=O)c3ccc(N4CCCN(C)CC4)nc3n3c2sc2ccccc23)cn1 | 1 (yes)
CC1COCCN1c1cc(-c2ccnn2C)c2ccnc(-c3ccn[nH]3)c2n1 (stereo not given) + Cc1cnc(CNC(=O)c2c(=O)c3ccc(N4CCCN(C)CC4)nc3n3c2sc2ccccc23)cn1 | 1 (yes)

* * *

# Tested on: IGROV1 complex spheroids (HUVEC, MSC), viability % test/control
# experiment.summary: Anticancer human tumor IGROV1 cell line growth inhibition [GQUAD];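 also: spheroids exposed to compounds for 7 days before readout; 100% = DMSO vehicle control viability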
# cond: second compound 0.0316 µM; first compound 0.316 µM; hits give low values
experimental.readout: viability, T/C (%)

compound | experimental.readout | reported
COc1cc(C2c3cc4c(cc3C(OC3OC5COC(C)OC5C(O)C3O)C3COC(=O)C23)OCO4)cc(OC)c1O (stereo not given) + CN(C)c1ccc(Nc2c3ccc(NC(=O)CCN4CCCC4)cc3nc3cc(NC(=O)CCN4CCCC4)ccc23)cc1 | viability, T/C | 25.1
COc1cc(C2c3cc4c(cc3C(OC3OC5COC(C)OC5C(O)C3O)C3COC(=O)C23)OCO4)cc(OC)c1O (stereo not given) + Cc1cnc(CNC(=O)c2c(=O)c3ccc(N4CCCN(C)CC4)nc3n3c2sc2ccccc23)cn1 | viability, T/C | 16.3
CC1COCCN1c1cc(C2(O)CC3CCC(C2)O3)c2cnn(-c3ccn[nH]3)c2n1 (stereo not given) + CN(C)c1ccc(Nc2c3ccc(NC(=O)CCN4CCCC4)cc3nc3cc(NC(=O)CCN4CCCC4)ccc23)cc1 | viability, T/C | 7.64
CC[C@@]1(O)C(=O)OCc2c1cc1n(c2=O)Cc2cc3c(CN(C)C)c(O)ccc3nc2-1 + Cc1cnc(CNC(=O)c2c(=O)c3ccc(N4CCCN(C)CC4)nc3n3c2sc2ccccc23)cn1 | viability, T/C | 8.43
CC(C)(O)C1CCC(Nc2ccc3ncc(-c4cccc(C(F)(F)F)c4)n3n2)CC1 (stereo not given) + CN(C)c1ccc(Nc2c3ccc(NC(=O)CCN4CCCC4)cc3nc3cc(NC(=O)CCN4CCCC4)ccc23)cc1 | viability, T/C | 74.8
C=CCn1c(=O)c2cnc(Nc3ccc(N4CCN(C)CC4)cc3)nc2n1-c1cccc(C(C)(C)O)n1 + CN(C)c1ccc(Nc2c3ccc(NC(=O)CCN4CCCC4)cc3nc3cc(NC(=O)CCN4CCCC4)ccc23)cc1 | viability, T/C | 12.3
CC[C@@]1(O)C(=O)OCc2c1cc1n(c2=O)Cc2cc3c(CN(C)C)c(O)ccc3nc2-1 + Cc1[nH]c2ccc(F)cc2c1-c1nc2c3cccnc3c3ncccc3c2[nH]1 | viability, T/C | 10.8
COc1cccc2c1C(=O)c1c(O)c3c(c(O)c1C2=O)CC(O)(C(=O)CO)CC3OC1CC(N)C(O)C(C)O1 (stereo not given) + Cc1[nH]c2ccc(F)cc2c1-c1nc2c3cccnc3c3ncccc3c2[nH]1 | viability, T/C | 9.18
CC(=O)O[C@H]1C(=O)[C@@]2(C)[C@H]([C@H](OC(=O)c3ccccc3)[C@]3(O)C[C@H](OC(=O)[C@H](O)[C@@H](NC(=O)c4ccccc4)c4ccccc4)C(C)=C1C3(C)C)[C@]1(OC(C)=O)CO[C@@H]1C[C@@H]2O + Cc1[nH]c2ccc(F)cc2c1-c1nc2c3cccnc3c3ncccc3c2[nH]1 | viability, T/C | 5.66
COc1ccc([C@@H](O)c2cc(-c3ncnc4cc(N5CCOCC5)ccc34)c(F)cc2Cl)nn1 + Cc1cnc(CNC(=O)c2c(=O)c3ccc(N4CCCN(C)CC4)nc3n3c2sc2ccccc23)cn1 | viability, T/C | 40.7
Cn1ncnc1[C@H]1c2n[nH]c(=O)c3cc(F)cc(c23)N[C@@H]1c1ccc(F)cc1 + Cc1[nH]c2ccc(F)cc2c1-c1nc2c3cccnc3c3ncccc3c2[nH]1 | viability, T/C | 33.4
CC(C)(O)C1CCC(Nc2ccc3ncc(-c4cccc(C(F)(F)F)c4)n3n2)CC1 (stereo not given) + Cc1cnc(CNC(=O)c2c(=O)c3ccc(N4CCCN(C)CC4)nc3n3c2sc2ccccc23)cn1 | viability, T/C | 55.7
CC1COCCN1c1cc(-c2ccnn2C)c2ccnc(-c3ccn[nH]3)c2n1 (stereo not given) + CN(C)c1ccc(Nc2c3ccc(NC(=O)CCN4CCCC4)cc3nc3cc(NC(=O)CCN4CCCC4)ccc23)cc1 | viability, T/C | 12.3
COc1ccc([C@@H](O)c2cc(-c3ncnc4cc(N5CCOCC5)ccc34)c(F)cc2Cl)nn1 + CN(C)c1ccc(Nc2c3ccc(NC(=O)CCN4CCCC4)cc3nc3cc(NC(=O)CCN4CCCC4)ccc23)cc1 | viability, T/C | 94.4
C#Cc1c(F)ccc2cc(O)cc(-c3ncc4c(N5CC6CCC(C5)N6)nc(OCC56CCCN5CC(F)C6)nc4c3F)c12 (stereo not given) + CN(C)c1ccc(Nc2c3ccc(NC(=O)CCN4CCCC4)cc3nc3cc(NC(=O)CCN4CCCC4)ccc23)cc1 | viability, T/C | 97.9
CCCS(=O)(=O)Nc1ccc(F)c(C(=O)c2c[nH]c3ncc(-c4ccc(Cl)cc4)cc23)c1F + Cc1[nH]c2ccc(F)cc2c1-c1nc2c3cccnc3c3ncccc3c2[nH]1 | viability, T/C | 98.4
Cc1cccc(N(C)C(=O)C2C(O)CCN2c2nc(C)cc(C(F)(F)F)c2C#N)c1 (stereo not given) + CN(C)c1ccc(Nc2c3ccc(NC(=O)CCN4CCCC4)cc3nc3cc(NC(=O)CCN4CCCC4)ccc23)cc1 | viability, T/C | 85.2
Nc1ccn(C2OC(CO)C(O)C2(F)F)c(=O)n1 (stereo not given) + Cc1cnc(CNC(=O)c2c(=O)c3ccc(N4CCCN(C)CC4)nc3n3c2sc2ccccc23)cn1 | viability, T/C | 5.15
C=CCn1c(=O)c2cnc(Nc3ccc(N4CCN(C)CC4)cc3)nc2n1-c1cccc(C(C)(C)O)n1 + Cc1cnc(CNC(=O)c2c(=O)c3ccc(N4CCCN(C)CC4)nc3n3c2sc2ccccc23)cn1 | viability, T/C | 5.19
C=CC(=O)N1CCN(c2nc(=O)n(-c3c(C)ccnc3C(C)C)c3nc(-c4c(O)cccc4F)c(F)cc23)C(C)C1 (stereo not given) + CN(C)c1ccc(Nc2c3ccc(NC(=O)CCN4CCCC4)cc3nc3cc(NC(=O)CCN4CCCC4)ccc23)cc1 | viability, T/C | 106
